Reported deprotection time values follow for various compounds
Experiment: In vitro deprotection under UV light and sunlight, followed by mass spectrometry/TLC and P NMR
Format: physicochemical
Details: Sun light; 5 mM in phosphate buffer pH 7.4
Lab book: enter the figure in h, no units written.

See these solved cases before continuing.
{"columns": ["Compound", "Unit tag", "deprotection time"],
 "data": [
  ["COc1cc(COP(=O)(OCc2cc(OC)c(OC)cc2[N+](=O)[O-])OCC2O[C@H](O[C@H]3OC(CO)[C@@H](O)C(O)C3O)C(O)C(O)[C@@H]2O)c([N+](=O)[O-])cc1OC (stereo partly shown) [Example 2, DMNB-T6P]", "h", 8],
  ["O=[N+]([O-])c1ccccc1COP(=O)(OCc1ccccc1[N+](=O)[O-])OCC1O[C@H](O[C@H]2OC(CO)[C@@H](O)C(O)C2O)C(O)C(O)[C@@H]1O (stereo partly shown) [Example 1, NB-T6P]", "h", 6]
]}

Incoming: Which measured deprotection time value corresponds to CC(OP(=O)(OCC1O[C@H](O[C@H]2OC(CO)[C@@H](O)C(O)C2O)C(O)C(O)[C@@H]1O)OC(C)c1ccccc1[N+](=O)[O-])c1ccccc1[N+](=O)[O-] (stereo partly shown) [Example 3, NPE-T6P] ?
Outgoing: 1.5

Incoming: Also COc1cc(COP(=O)(O)OCC2O[C@H](O[C@H]3OC(CO)[C@@H](O)C(O)C3O)C(O)C(O)[C@@H]2O)c([N+](=O)[O-])cc1OC (stereo partly shown) [Example 4, Mono-DMNB-T6P] , if possible.
Outgoing: 6

----------
Listed next: entries and their corresponding deprotection time of caged G6P(1-OMe).
Assay: In vitro deprotection under UV light and sunlight, followed by mass spectrometry/TLC and P NMR
Type: physicochemical
Conditions: Sun light
Record the value in h, omitting the unit from your answer.

Here are 2 compounds together with their reported answers.
{"columns": ["Compound", "Unit tag", "deprotection time of caged G6P(1-OMe)"],
 "data": [
  ["COc1cc(COP(=O)(O)OC[C@H]2O[C@H](OC)[C@H](O)[C@@H](O)[C@@H]2O)c([N+](=O)[O-])cc1OC", "h", 8],
  ["COC1OC(COP(=O)(OC(C)c2ccccc2[N+](=O)[O-])OC(C)c2ccccc2[N+](=O)[O-])C(O)C(O)C1O (mixture of isomers)", "h", 10]
]}

Incoming: Value lookup for deprotection time of caged G6P(1-OMe); key = `COc1cc(COP(=O)(OCc2cc(OC)c(OC)cc2[N+](=O)[O-])OC[C@H]2O[C@H](OC)[C@H](O)[C@@H](O)[C@@H]2O)c([N+](=O)[O-])cc1OC`
Outgoing: 10

Incoming: Next compound up: `CO[C@H]1O[C@H](COP(=O)(OCc2ccccc2[N+](=O)[O-])OCc2ccccc2[N+](=O)[O-])[C@@H](O)[C@H](O)[C@H]1O`
Outgoing: 8

----------
Assay: In-planta uptake after feeding to roots of seedlings, quantified by HPLC/LCMS
Assay type: in vivo, Arabidopsis thaliana
Settings: proportion of compound fed taken up by the plant; Arabidopsis seedling, 72 h
Value kind: Uptake % (%)
Field: numeric (%). Do not append units.

{"columns": ["Compound", "Value kind", "Readout value"],
 "data": [
  ["COc1cc(COP(=O)(OCc2cc(OC)c(OC)cc2[N+](=O)[O-])OCC2O[C@H](O[C@H]3OC(CO)[C@@H](O)C(O)C3O)C(O)C(O)[C@@H]2O)c([N+](=O)[O-])cc1OC (stereo partly shown) [Example 2, DMNB-T6P]", "Uptake %", 1],
  ["COc1cc(COP(=O)(O)OCC2O[C@H](O[C@H]3OC(CO)[C@@H](O)C(O)C3O)C(O)C(O)[C@@H]2O)c([N+](=O)[O-])cc1OC (stereo partly shown) [Example 4, Mono-DMNB-T6P]", "Uptake %", 1],
  ["CC(OP(=O)(OCC1O[C@H](O[C@H]2OC(CO)[C@@H](O)C(O)C2O)C(O)C(O)[C@@H]1O)OC(C)c1ccccc1[N+](=O)[O-])c1ccccc1[N+](=O)[O-] (stereo partly shown) [Example 3, NPE-T6P]", "Uptake %", 18]
]}

# input for lookup
Incoming: Could you share which Uptake % value was measured for O=[N+]([O-])c1ccccc1COP(=O)(OCc1ccccc1[N+](=O)[O-])OCC1O[C@H](O[C@H]2OC(CO)[C@@H](O)C(O)C2O)C(O)C(O)[C@@H]1O (stereo partly shown) [Example 1, NB-T6P] ?
Outgoing: 14
